test system: Plasmodium falciparum; test: Screen against P. falciparum Asexual Blood Stage (ABS), at 5uM; type: functional, Dd2; settings: tested at 5 uM
Among all 65,000 compounds or so, about 2,100 (3.2%) showed an effect of 50% or more. The median lay at about -52%. The entries come from a sample that favours strong results as a whole.
This listing pairs compounds with measured INHIBITION.
State just the number; it will be interpreted in %.

{"compound": "CNC(=O)[C@H]1C[C@@H]2CN(Cc3cccnc3OC)C[C@@H]2N1C(C)=O", "test target": "Plasmodium falciparum", "unit info": "%", "INHIBITION": 38.2}
{"compound": "COc1ccc(-c2ccccc2CCN)c(OC)c1OC", "test target": "Plasmodium falciparum", "unit info": "%", "INHIBITION": 81.8}
{"compound": "CC(O)CN1CCC(CN(C)Cc2cc(F)cc3cccnc23)CC1 (stereo not drawn)", "test target": "Plasmodium falciparum", "unit info": "%", "INHIBITION": 87.2}
{"compound": "CN1CCN(Cc2cccnc2)C(=O)C12CCN(S(C)(=O)=O)CC2", "test target": "Plasmodium falciparum", "unit info": "%", "INHIBITION": -18.9}

Value of measured INHIBITION for the entry Fc1cccnc1O[C@@H]1CC[C@H]2[C@H]1OCCN2Cc1nccs1 : -91.9

// field: INHIBITION; key: CC(=O)Nc1cccc(-c2ccccc2CCN)c1 ; value = -108

Briefly, INHIBITION measured for CN(Cc1ccccn1)C1CCC[C@@H]2CN(CC3CC3)C[C@H]12 (stereo partly drawn) : 69.5

Quick note, INHIBITION for COc1cc(C2SCC(=O)Nc3n[nH]cc32)cc(OC)c1O (stereo not drawn) landed at -36

For reference, reported INHIBITION for CC(Cc1c(F)cccc1F)NC(=O)NCc1ncnn1C (stereo not drawn) stands at -43.1

# compound c1cncc(CO[C@H]2CN(Cc3ccco3)[C@@H]3COC[C@H]23)c1 ; its INHIBITION = -14.4

Lookup result for CC(=O)Nc1ccc(-c2ccccc2CCN)cc1 ; measured INHIBITION: -115

The reported INHIBITION of the compound O=C1CO[C@@H]2CN(Cc3ccncc3)C[C@H]2N1Cc1ccncc1 was -52.2

Reported INHIBITION for COCCn1cc(C(=O)NCCS(N)(=O)=O)c2ccccc21 was -110

Item: CN(C)C(=O)[C@H]1C[C@H]2OCC[C@H]2N(Cc2ccccn2)C1 | INHIBITION: -13.3

Sample Cc1noc(C)c1CN1CCOC2(CCCN(c3nccs3)C2)C1 (stereo not drawn) ; INHIBITION observed: -36.8

INHIBITION measured on CCOc1c(Br)cc(C2c3c(n[nH]c3C)N=C3COC(=O)C32)cc1OC (stereo not drawn) = 81.1

Notebook: COc1ccc(CCN)cc1-c1ccc(S(C)(=O)=O)cc1 , INHIBITION read as 21.8

Entry CN(c1ncccc1C#N)C1CCN(CCc2ccccn2)CC1 , INHIBITION reported as 20.6

COc1cc(C2c3c(n[nH]c3C)N=C3COC(=O)C32)cc(Br)c1O (stereo not drawn) yielded INHIBITION of 91

The measured INHIBITION associated with CC(=O)C1(c2ccccc2)CCN(C(=O)c2ccn3nnnc3c2)CC1 reads -138

Record O=C(NCc1ccccn1)[C@H]1COC[C@H]2CN(CC3CC3)C[C@H]21 . Reported INHIBITION: -35.7

// sample CCC(C)N1CCc2nc(N3CCCC3)nc(NC(C)C)c2C1 (stereo not drawn) , its INHIBITION was 78

The reported value for Cc1ccc(N2CC[C@@H]3CN(Cc4cc[nH]n4)C[C@@H]3C2)nn1 in terms of INHIBITION is -19.6

* * *

system: Plasmodium falciparum; experiment: Screen against P. falciparum Asexual Blood Stage (ABS), at 5uM; type: functional, Dd2; conditions: tested at 5 uM
Hit rate of the full screen: of about 65,000 compounds, about 2,100 (3.2%) showed an effect of 50% or more. The median lay at about -52%. The entries come from a sample that favours strong results as a whole.
parameter measured: INHIBITION (%)
Enter your answer as a number in %; do not include the unit.

The examples below pair each entry with its known result.
{"molecule": "CSc1ccccc1C(=O)C1CCCN(Cc2ccccn2)C1 (centres undefined)", "recorded value": -41.1}
{"molecule": "COc1nc(C)ccc1CNc1cc(N2CCCC2CO)ncn1 (centres undefined)", "recorded value": -50.3}
{"molecule": "CC(Cn1cccn1)NCc1nc(-c2cccs2)no1 (centres undefined)", "recorded value": -230}
{"molecule": "O=c1[nH]cnc2[nH]c(N3CCNCC3)nc12", "recorded value": -168}
{"molecule": "Cc1cc(CN(C)C(=O)CN2CCCC2=O)no1", "recorded value": -32.3}
{"molecule": "CSc1nccc(N2CCN(C)C3(CCNC(=O)CC3)C2)n1 (centres undefined)", "recorded value": -69.1}
{"molecule": "NC(=O)c1cccc2nc([C@H]3CCN(Cc4ccccn4)C3)[nH]c12", "recorded value": 95.1}
{"molecule": "O=C([C@H]1C[C@H]2OCC[C@H]2N(Cc2cccnc2)C1)N1CCCCO1", "recorded value": -141}
{"molecule": "CC(Cn1cccn1)NCCS(=O)(=O)c1ccccc1 (centres undefined)", "recorded value": -87.3}
{"molecule": "NCC1Cc2cc(-c3nccc(N4CCC(O)CC4)n3)cc(Cl)c2O1 (centres undefined)", "recorded value": 80.6}

Form: molecule = CC(C)N1CCN(C(=O)Cc2csc(-c3ccco3)n2)CC1 ; INHIBITION = -22.2

Reported INHIBITION of CCCS(=O)(=O)N1CCN(CCOC)c2nc(C)ccc2C1 : -87

* * *

system: Plasmodium falciparum; assay: Screen against P. falciparum Asexual Blood Stage (ABS), at 5uM; format: functional, Dd2; conditions: tested at 5 uM
About 2,100 (3.2%) of roughly 65,000 compounds showed an effect of 50% or more. The median lay at about -52%. For the sample, strong results were picked, then their nearest neighbours and some compounds at random.
Response key: criterion met means INHIBITION >= -10%; criterion not met means INHIBITION < -10%.

Solved entries:
{"compound": "CC(C)N1CCCC(C(=O)N2CCN(c3nsc4ccccc34)CC2)C1 (configuration not stated)", "category": "criterion met"}
{"compound": "c1ccc(CN2CC[C@H]3CO[C@H](CNc4ncccn4)[C@H]3C2)cc1", "category": "criterion met"}
{"compound": "Cc1cccc(CN2CC3C[C@]3(NC(=O)c3ccco3)C2)n1 (some centres not stated)", "category": "criterion not met"}
{"compound": "CCN1CCC2(COCc3cnc(NCC4CC4)nc32)C1 (configuration not stated)", "category": "criterion met"}
{"compound": "FC(F)(F)c1nc(C2CCNCC2)no1", "category": "criterion not met"}

Exercise: For this compound, is measured INHIBITION -10% or higher? O=C(CN1CCCC(c2ccn[nH]2)C1)Nc1nncs1 (configuration not stated)
Solution: criterion met

Exercise: Check this compound for INHIBITION at or above -10%: CCCSCC(=O)N1C[C@@H]2CC[C@H]1CN(Cc1cccnc1)C2
Solution: criterion not met

Exercise: Check this compound for INHIBITION at or above -10%: CN(C)C(=O)c1ccc(-c2cccc3c2CCNC3)cc1
Solution: criterion not met

Exercise: Could you tell me if the measured INHIBITION of CCCN1CCN(C(=O)c2cnccc2C)[C@H]2CS(=O)(=O)C[C@H]21 reaches -10% or more?
Solution: criterion not met

Exercise: Confirm if INHIBITION reported for the compound Clc1ccccc1C1(c2ccnc(C3CC3)n2)CCNCC1 is -10% or above.
Solution: criterion met

Exercise: Does the reported INHIBITION for O=C(c1cc(-n2cccc2)ccc1Cl)N1CCC2(CC1)OCCO2 fall at or above the -10% mark?
Solution: criterion met

Exercise: # bool: INHIBITION of c1cncc(OC[C@]23COC[C@H]2CN(Cc2ccsc2)C3)c1 >= -10%
Solution: criterion met

Exercise: Record Cc1nn(CCNC(C)Cn2ccnc2)c(C)c1Cl (configuration not stated) ; criterion: INHIBITION no lower than -10%. Met?
Solution: criterion met

Exercise: INHIBITION >= -10% for c1cc(CN2CCOCC3(CCNCC3)C2)ccn1 ?
Solution: criterion not met

Exercise: Determine whether this compound has INHIBITION no lower than -10%: Clc1ccccc1C1(c2ccnc(CC3CC3)n2)CCNCC1
Solution: criterion met

Exercise: Dear colleague, could you confirm whether O[C@@H]1CC(CNCc2ccc(Cl)cc2)(COc2cccnc2)C[C@@H]1O (some centres not stated) has INHIBITION at or above -10%?
Solution: criterion met

Exercise: I'd appreciate it if you could say whether Cc1nn(-c2ncccn2)c2c1C(c1cnn(C)c1)SCC(=O)N2 (configuration not stated) has INHIBITION at least equal to -10%.
Solution: criterion not met

Exercise: # check: INHIBITION of O[C@@]1(CNCCCOc2cccnc2)CCCN2CCCC[C@@H]21 is greater than or equal to -10%
Solution: criterion not met

Exercise: Confirm if INHIBITION reported for the compound COCC(=O)NC(C)Cc1ccc(Br)cc1 (configuration not stated) is -10% or above.
Solution: criterion met

Exercise: Has CC(C)CNC(=O)[C@H]1C[C@H]2CN(Cc3cccnc3)C[C@@H]1O2 a recorded INHIBITION greater than or equal to -10%?
Solution: criterion not met

Exercise: Quick check, INHIBITION >= -10%? Cn1cnc(S(=O)(=O)N2CC3(CCN(Cc4ccncc4)C3)C2)c1
Solution: criterion not met
